System: WI38
conditions used: MTT, 24 hours with peptide; normal fibroblast line
No end group written: not given here.

substance	WI38 LD50 / µg/mL
KLAKKLAKLAKLAKAL-NH2 [P159, reference compound]	82
FAKLLAKLAKKAL-NH2 [P54, FAKLLAKLAKKAL-NH2]	97
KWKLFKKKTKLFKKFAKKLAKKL-NH2 [P73]	160
FAKKLKKLAKLAKKL-NH2 [P46]	200
FAKKLAKKLAKAAL-NH2 [P76, FAKKLAKKLAKAAL-NH2]	445
FAKLLAKLAKAKA-NH2 [P95]	250
KWKLAKKALALL-NH2 [P142]	73
LPKWKVFKKIEKVGRNIRNGIVKAGPAIAVLGEAKALG-NH2 [P306, reference compound]	320
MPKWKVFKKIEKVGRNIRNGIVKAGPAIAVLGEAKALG-NH2 [P12, reference compound]	950
FAKKLAKKLL-NH2 [P59]	77
FAKLLAKKLL-NH2 [P57]	900
FAKLLAKLAKKSL-NH2 [P127]	760
LKKLAKLALAF-NH2 [P179]	540
FAKLFAKLAKKFAL-NH2 [P121, FAKLFAKLAKKFAL-NH2]	625
FAKKLAKLAKKALAL-NH2 [P39, FAKKLAKLAKKALAL-NH2]	300
FALALKALKKL-NH2 [P165]	470
FAKLLAKALKKLL-NH2 [P55]	32
FAKLLAKALKKFAL-NH2 [P119, FAKLLAKALKKFAL-NH2]	45
FAKLLAKLAKKGL-NH2 [P152]	620
FALALKALKKLKKALKKAL-OH [P28]	101
FAKLLAKLAKAKL-NH2 [P65]	320

* * *

Tested on: BMKC
assay protocol: Anti-cancer assay, MTT, LD50
Format: cell-based
conditions used: BMKC cloned melanoma line, 24 hours with peptide
Catalogue of LD50 BMKC values
measurement type: LD50 BMKC (µg/mL)

compound	result unit	readout number
CC(C)C[C@H](NC(=O)[C@H](C)NC(=O)[C@H](CC(C)C)NC(=O)[C@H](C)NC(=O)[C@H](CC(C)C)NC(=O)[C@H](CCCCN)NC(=O)[C@H](C)NC(=O)[C@H](CC(C)C)NC(=O)[C@H](CCCCN)NC(=O)[C@H](CCCCN)NC(=O)[C@H](C)NC(=O)[C@H](CC(C)C)NC(=O)[C@H](CCCCN)NC(=O)[C@H](C)NC(=O)[C@H](CC(C)C)NC(=O)[C@H](CCCCN)NC(=O)[C@H](CCCCN)NC(=O)[C@H](C)NC(=O)[C@@H](N)Cc1ccccc1)C(N)=O	µg/mL	56
CC[C@H](C)[C@H](N)C(=O)N[C@@H](CC(C)C)C(=O)N1CCC[C@H]1C(=O)N[C@@H](Cc1c[nH]c2ccccc12)C(=O)N[C@@H](CCCCN)C(=O)N[C@@H](Cc1c[nH]c2ccccc12)C(=O)N1CCC[C@H]1C(=O)N[C@@H](Cc1c[nH]c2ccccc12)C(=O)N[C@@H](Cc1c[nH]c2ccccc12)C(=O)N1CCC[C@H]1C(=O)N[C@@H](Cc1c[nH]c2ccccc12)C(=O)N[C@@H](CCCNC(=N)N)C(=O)N[C@@H](CCCNC(=N)N)C(N)=O [P63, reference compound]	µg/mL	200
CC(C)C[C@H](NC(=O)[C@H](C)NC(=O)[C@H](CC(C)C)NC(=O)[C@H](CCCCN)NC(=O)[C@H](C)NC(=O)[C@H](CC(C)C)NC(=O)[C@H](CCCCN)NC(=O)[C@H](CCCCN)NC(=O)[C@H](C)NC(=O)[C@H](CC(C)C)NC(=O)[C@H](CCCCN)NC(=O)[C@H](C)NC(=O)[C@H](CC(C)C)NC(=O)[C@H](CCCCN)NC(=O)[C@H](CCCCN)NC(=O)[C@H](C)NC(=O)[C@@H](N)Cc1ccccc1)C(=O)O	µg/mL	140
CC(C)C[C@H](NC(=O)[C@H](C)NC(=O)[C@H](CC(C)C)NC(=O)[C@H](CCCCN)NC(=O)[C@H](C)NC(=O)[C@H](CC(C)C)NC(=O)[C@H](CCCCN)NC(=O)[C@H](CCCCN)NC(=O)[C@H](C)NC(=O)[C@H](CC(C)C)NC(=O)[C@H](CCCCN)NC(=O)[C@H](C)NC(=O)[C@H](CC(C)C)NC(=O)[C@H](CCCCN)NC(=O)[C@H](CCCCN)NC(=O)[C@H](C)NC(=O)[C@@H](N)Cc1ccccc1)C(N)=O	µg/mL	7

Data provenance: patent US20050209157A1
